Reported values of Activity for individual entries
# measurement notes: Cytotoxicity against human fibroblast cells at 10 uM after 48 hrs
# Format: cell-based
reported metric: Activity

                              line_notation  value_measured
0  C[C@@H]1CC[C@]2(C(=O)O)CC[C@]34C[C@]3(C=C[C@@H]3[C@@]5(C)CC[C@H](O)[C@@](C)(CO)[C@@H]5CC[C@]34C)[C@@H]2[C@]1(C)O            109%
1  C[C@@H]1CC[C@]2(C(=O)O)CC[C@]3(C)C(=CC[C@@H]4[C@@]5(C)C[C@@H](O)[C@H](O)C(C)(C)[C@@H]5CC[C@]43C)[C@@H]2[C@]1(C)O            114%
2  C[C@H]1[C@H](C)CC[C@]2(C(=O)O)CC[C@]34C[C@]3(C=C[C@@H]3[C@@]5(C)C[C@@H](O)[C@H](O)C(C)(C)[C@@H]5CC[C@]34C)[C@H]12            110%
3  C[C@@H]1CC[C@]2(C(=O)O)CC[C@]34C[C@]3(C=C[C@@H]3[C@@]5(C)C[C@@H](O)[C@H](O)C(C)(C)[C@@H]5CC[C@]34C)[C@@H]2[C@]1(C)O            111%
